- testedSystem: T1, hDcn1^P (potentiating neddylation / PONY domain of human Dcn1, DCUN1D1) (Homo sapiens, UniProt Q96GG9 62-259)
- T1 construct: also called DCUN1D1^P; SCCRO PONY domain
- T1 sequence (Q96GG9 62-259): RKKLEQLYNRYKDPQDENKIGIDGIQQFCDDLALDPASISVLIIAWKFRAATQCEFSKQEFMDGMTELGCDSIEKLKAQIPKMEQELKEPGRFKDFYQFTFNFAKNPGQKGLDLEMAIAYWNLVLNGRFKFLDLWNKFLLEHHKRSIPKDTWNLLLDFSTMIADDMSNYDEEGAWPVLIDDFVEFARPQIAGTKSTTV
- procedureSummary: ITC, two-site fit, first value
Positions of bridges follow the written chain, without caps; N, C: chain ends. Non-standard residues stand in square brackets, D forms with d. SeMet = C[Se]CC[C@H](N)C(=O)O; S5 = C=CCCC[C@](C)(N)C(=O)O; Nle = CCCC[C@H](N)C(=O)O
reportedEndpoint: pKd
Just the number, please; pKd means minus log10 of the concentration in mol/L.

Reference set (3 entries):
>  <binder>
Ac-MIKLF[S5]LKQ[S5]KK-NH2 (staple 6-10, Stapled synthetic peptide; 'SS' is not explained in the text) [hUbc12^Ac1-12 (Met) SS 6, 10]

>  <reportedEndpoint>
pKd

>  <experimentalResult>
8.74

$$$$
>  <binder>
Ac-MIKLF[(R)‑2‑(4-pentenyl)alanine]LKQ[(R)‑2‑(4-pentenyl)alanine]KK-NH2 (staple 6-10, Stapled synthetic peptide; 'RR' is not explained in the text) [hUbc12^Ac1-12 (Met) RR 6, 10]

>  <reportedEndpoint>
pKd

>  <experimentalResult>
6.47

$$$$
>  <binder>
Ac-[SeMet]IKLF[S5]LKQ[S5]KK-NH2 (staple 6-10, Stapled synthetic peptide) [hUbc12^Ac1-12 (SeMet) 6, 10]

>  <reportedEndpoint>
pKd

>  <experimentalResult>
9.03

$$$$

Output measured pKd for this item: Ac-[Nle]IKLF[S5]LKQ[S5]KK-NH2 (staple 6-10; SMILES CCCC[C@H](NC(C)=O)C(=O)N[C@H](C(=O)N[C@@H](CCCCN)C(=O)N[C@@H](CC(C)C)C(=O)N[C@@H](Cc1ccccc1)C(=O)N[C@@]1(C)CCCC=CCCC[C@@](C)(C(=O)N[C@@H](CCCCN)C(=O)N[C@@H](CCCCN)C(N)=O)NC(=O)[C@H](CCC(N)=O)NC(=O)[C@H](CCCCN)NC(=O)[C@H](CC(C)C)NC1=O)[C@@H](C)CC, Stapled synthetic peptide) [hUbc12^Ac1-12 (NorLeu) 6, 10]
6.10

Kindly indicate its recorded pKd. Item: Ac-MLKLR[S5]LQK[S5]KQ-NH2 (staple 6-10; SMILES CSCC[C@H](NC(C)=O)C(=O)N[C@@H](CC(C)C)C(=O)N[C@@H](CCCCN)C(=O)N[C@@H](CC(C)C)C(=O)N[C@@H](CCCNC(=N)N)C(=O)N[C@@]1(C)CCCC=CCCC[C@@](C)(C(=O)N[C@@H](CCCCN)C(=O)N[C@@H](CCC(N)=O)C(N)=O)NC(=O)[C@H](CCCCN)NC(=O)[C@H](CCC(N)=O)NC(=O)[C@H](CC(C)C)NC1=O, Stapled synthetic peptide; also called Acetyl-yUbc12^1-12(6:10 Staple)) [yUbc12^Ac1-12 (Met) 6, 10]
7.42

Origin of values: patent US20140179593A1
